Where these numbers come from: PubChem BioAssay (NCI)

# methodNotes: NCI Yeast Anticancer Drug Screen. Data for the bub3 strain (AID 167)
# conditionInfo: S. cerevisiae bub3 mutant strain, at 5.0 µM (retest, dose inferred, filed as 0.5), stronger effect = higher value
This is part of a sample that, as a whole, favours compounds with a hit. Of some 79,000 tested, about 15% had one in any assay.
quantityName: growth inhibition (%)
# unit: % | format: bare number

Query: Please give the documented growth inhibition of Oc1c(Cl)cc(Cl)cc1Cl
Result: -13

Query: In one line, give reported growth inhibition of the entry O=C1CCC[N]1[Hg][N]1CCCC1=O .
Result: 99

Query: Name the recorded growth inhibition of the compound listed here: CCC1CC2CCC(O2)C(C)C(=O)OC(C)CC2CCC(O2)C(C)C(=O)OC(CC)CC2CCC(O2)C(C)C(=O)OC(C)CC2CCC(O2)C(C)C(=O)O1 (centres undefined)
Result: -4

Query: Please look at this compound and report its growth inhibition: CO[C@H](/C(C)=C/C=C/C(C)=C/c1coc(C)n1)[C@H](C)[C@H]1C[C@@H](O)[C@@]2(C)O[C@H]2/C=C/[C@@H](C)[C@@H]2C[C@@H](CC(=O)O2)C[C@H]2O[C@@H]2C(=O)O1
Result: 37
